# Assay name: Oral bioavailability in rat
# Assay type: ADME, organism-based
# Experimental conditions: in vivo

{"Cpd smiles": "CCC(CC)Oc1c(C)nc(-c2c(OC)cc(Cl)cc2OC)nc1OC", "U": "%", "bioavailability": 6}

###

# Assay name: Volume of distribution at steady state in rat at 3 mg/kg, iv
# Type: ADME, organism-based
# Design: dose 3 mg/kg, route intravenous
# Experimental conditions: in vivo, read-out: Vdss

{"Cpd smiles": "CCc1nc(-c2ccc(Cl)cc2Cl)c(CC)nc1NC(CC)CC", "Vd, L/kg": 6.5}

###

# Assay name: Tmax in rat at 10 mg/kg, po
# Format: ADME, organism-based
# Design: dose 10 mg/kg, route oral
# Experimental conditions: in vivo

{"Cpd smiles": "CCC(CC)Nc1nc(C)c(-c2ccc(OC(F)(F)F)cc2OC)nc1OC", "Tmax [h]": 4}

###

# Target under test: Corticotropin-releasing factor receptor 1 (Homo sapiens)
# Sequence (P34998 whole entry): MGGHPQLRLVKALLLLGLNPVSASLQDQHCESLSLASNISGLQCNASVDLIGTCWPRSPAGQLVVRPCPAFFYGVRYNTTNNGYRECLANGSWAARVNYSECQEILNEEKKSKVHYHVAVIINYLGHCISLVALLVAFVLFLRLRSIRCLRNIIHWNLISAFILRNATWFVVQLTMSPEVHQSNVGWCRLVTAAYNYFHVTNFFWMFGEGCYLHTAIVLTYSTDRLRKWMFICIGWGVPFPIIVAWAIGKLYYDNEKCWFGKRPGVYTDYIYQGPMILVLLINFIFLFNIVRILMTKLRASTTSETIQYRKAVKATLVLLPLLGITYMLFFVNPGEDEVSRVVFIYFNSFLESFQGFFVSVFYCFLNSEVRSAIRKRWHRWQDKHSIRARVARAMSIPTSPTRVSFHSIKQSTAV
# Assay name: Displacement of [125I]-sauvagine from human CRF-1 receptor expressed in human IMR-32 cells after 2 hrs by scintillation counting
# Type: cell-based
Category scheme (Ki): bin 1: < 4 nM; bin 2: ≥ 4 nM and < 30 nM; bin 3: ≥ 30 nM

{"Compound": "CCCN(CCN(C)C)c1nc(CC)c(-c2ccc(Cl)cc2Cl)nc1CC", "Target under test": "Corticotropin-releasing factor receptor 1 (Homo sapiens)", "Answer label": "bin 3"}
{"Compound": "CCc1nc(NC(CC)CC)c(F)nc1-c1ccc(Cl)cc1Cl", "Target under test": "Corticotropin-releasing factor receptor 1 (Homo sapiens)", "Answer label": "bin 3"}
{"Compound": "CCc1nc(N(CCOC)CCOC)c(CC)nc1-c1ccc(Cl)cc1Cl", "Target under test": "Corticotropin-releasing factor receptor 1 (Homo sapiens)", "Answer label": "bin 3"}
{"Compound": "CCC(CC)Nc1nc(C)c(-c2ccc(C(F)(F)F)cc2OC)nc1OC", "Target under test": "Corticotropin-releasing factor receptor 1 (Homo sapiens)", "Answer label": "bin 1"}
{"Compound": "CCc1nc(N(CC2CC2)CC2CC2)c(CC)nc1-c1ccc(Cl)cc1Cl", "Target under test": "Corticotropin-releasing factor receptor 1 (Homo sapiens)", "Answer label": "bin 2"}
{"Compound": "CCc1nc(NC(CC)CC)cnc1-c1ccc(Cl)cc1Cl", "Target under test": "Corticotropin-releasing factor receptor 1 (Homo sapiens)", "Answer label": "bin 3"}
{"Compound": "CCc1nc(-c2ccc(OC(C)C)cc2OC)c(CC)nc1NC(CC)CC", "Target under test": "Corticotropin-releasing factor receptor 1 (Homo sapiens)", "Answer label": "bin 2"}
{"Compound": "CCc1nc(NC(CC)CC)c(OC)nc1-c1ccc(Cl)cc1Cl", "Target under test": "Corticotropin-releasing factor receptor 1 (Homo sapiens)", "Answer label": "bin 2"}
{"Compound": "CCc1nc(NC(CC)CC)c(OC)nc1-c1ccc(C(F)(F)F)cc1OC", "Target under test": "Corticotropin-releasing factor receptor 1 (Homo sapiens)", "Answer label": "bin 2"}
{"Compound": "CCOc1nc(-c2ccc(Cl)cc2Cl)c(CC)nc1NC(CC)CC", "Target under test": "Corticotropin-releasing factor receptor 1 (Homo sapiens)", "Answer label": "bin 3"}
{"Compound": "CCc1nc(-c2ccc(Cl)cc2Cl)c(CC)nc1NC(C1CC1)C1CC1", "Target under test": "Corticotropin-releasing factor receptor 1 (Homo sapiens)", "Answer label": "bin 1"}
{"Compound": "CCc1nc(-c2ccc(OC(F)(F)F)cc2OC)c(CC)nc1NC(CC)CC", "Target under test": "Corticotropin-releasing factor receptor 1 (Homo sapiens)", "Answer label": "bin 2"}
{"Compound": "CCC(CC)Nc1nc(C)c(-c2ccc(OC(F)(F)F)cc2OC)nc1OC", "Target under test": "Corticotropin-releasing factor receptor 1 (Homo sapiens)", "Answer label": "bin 1"}
{"Compound": "CCc1nc(-c2ccc(Cl)cc2Cl)c(CC)nc1NC(COC)COC", "Target under test": "Corticotropin-releasing factor receptor 1 (Homo sapiens)", "Answer label": "bin 3"}
{"Compound": "CCOc1ccc(-c2nc(OC)c(NC(CC)CC)nc2C)c(Cl)c1", "Target under test": "Corticotropin-releasing factor receptor 1 (Homo sapiens)", "Answer label": "bin 2"}
{"Compound": "CCc1nc(-c2ccc(Cl)cc2Cl)c(CC)nc1SC(C)CC (stereo not drawn)", "Target under test": "Corticotropin-releasing factor receptor 1 (Homo sapiens)", "Answer label": "bin 3"}
{"Compound": "CCC(CC)Nc1nc(OC)c(-c2ccc(Cl)cc2Cl)nc1OC", "Target under test": "Corticotropin-releasing factor receptor 1 (Homo sapiens)", "Answer label": "bin 2"}
{"Compound": "CCc1nc(-c2cnc(OC)nc2OC)c(CC)nc1NC(CC)CC", "Target under test": "Corticotropin-releasing factor receptor 1 (Homo sapiens)", "Answer label": "bin 2"}
{"Compound": "CCC(CC)Nc1nc(C)c(-c2ccc(Cl)cc2Cl)nc1OC", "Target under test": "Corticotropin-releasing factor receptor 1 (Homo sapiens)", "Answer label": "bin 2"}
{"Compound": "CCc1nc(NC(CC)CC)c(OC)nc1-c1ccc(OC)cc1C(F)(F)F", "Target under test": "Corticotropin-releasing factor receptor 1 (Homo sapiens)", "Answer label": "bin 1"}
{"Compound": "CCc1nc(-c2ccc(Cl)cc2Cl)c(OC)nc1NC(CC)CC", "Target under test": "Corticotropin-releasing factor receptor 1 (Homo sapiens)", "Answer label": "bin 2"}
